Please consider the recorded MIC for S. aureus A15097 (Meth-res.) in what follows.

COMPOUND_STRUCTURE_STRING	MIC
CCC[n+]1ccc(CSC2=C(C(=O)[O-])N3C(=O)[C@H]([C@@H](C)O)[C@H]3C2)cc1	4 µg/mL

Q: // returns reported MIC for input `Cc1ccc[n+](C)c1CSC1=C(C(=O)[O-])N2C(=O)[C@H]([C@@H](C)O)[C@H]2C1`
Result: 2 µg/mL

Q: Moving on to the next compound: `C[C@@H](O)[C@H]1C(=O)N2C(C(=O)[O-])=C(SCc3ccc[n+](C)c3)C[C@H]12`
Result: 4 µg/mL

Q: Moving on to the next compound: `C[C@@H](O)[C@H]1C(=O)N2C(C(=O)[O-])=C(SCc3cccc[n+]3C)C[C@H]12`
Result: 4 µg/mL

* * *

system: S. aureus A-9606; assay: Protective effect in intramuscular treatment of infected mice; type: in vivo; details: Staphylococcus aureus, im; mice, i.m.; S. aureus A9606; read-out: PD50/treatment
Reported ED50 values for a set of compounds
Write down the numeric answer in mg/kg and omit the unit.

These solved cases illustrate the format of a correct answer.
COMPOUND	RESULT_UNITS	ED50
C[C@@H](O)[C@H]1C(=O)N2C(C(=O)[O-])=C(SCc3ccc[n+](C)c3)C[C@H]12	mg/kg	0.07
Cc1c(CSC2=C(C(=O)[O-])N3C(=O)[C@H]([C@@H](C)O)[C@H]3C2)ccc[n+]1C	mg/kg	0.07

Q: // returns reported ED50 for input `Cc1scc(CSC2=C(C(=O)[O-])N3C(=O)[C@H]([C@@H](C)O)[C@H]3C2)[n+]1C`
Result: 0.21

Q: Moving on to the next compound: CC(SC1=C(C(=O)[O-])N2C(=O)[C@H]([C@@H](C)O)[C@H]2C1)c1cc[n+](C)cc1 (some centres unmarked)
Result: 0.89

Q: Moving on to the next compound: `C[C@@H](O)[C@H]1C(=O)N2C(C(=O)[O-])=C(SCc3cccc[n+]3C)C[C@H]12`
Result: 0.1

* * *

assay: Toxicity after intracranial administration to mice; conditions: mouse, in vivo
OBSERVABLE: LD50 (mg/kg)
Write down the numeric answer in mg/kg and omit the unit.

Q: // returns reported LD50 for input `C[C@@H](O)[C@H]1C(=O)N2C(C(=O)[O-])=C(SCc3cc[n+](C)cc3)C[C@H]12`
Result: 14

* * *

assay: Urinary recovery after intramuscular administration to mice; format: in vivo; conditions: mouse, urine, im, 20 mg/kg, 20 mg/kg i.m., 6-24 hours
OBSERVABLE: dose excreted at 24 h (%)
Write down the numeric answer in % and omit the unit.

Q: // returns reported dose excreted at 24 h for input `C[C@@H](O)[C@H]1C(=O)N2C(C(=O)[O-])=C(SCc3cc[n+](C)cc3)C[C@H]12`
Result: 0.1

* * *

system: H. influenzae A-9833; assay: M.I.C., tube dilution; type: cell-based; settings: Haemophilus influenzae, A9833; overnight incubation at 37° C., Nutrient Broth
Reported MIC values for a set of molecules
Hey, just the number and the unit after it is fine.

These solved cases illustrate the format of a correct answer.
COMPOUND_STRUCTURE_STRING	OBSERVABLE	MEASURED_VALUE
C[C@@H](O)[C@H]1C(=O)N2C(C(=O)[O-])=C(SCCc3cccc[n+]3C)C[C@H]12	MIC	4 µg/mL
C[C@@H](O)[C@H]1C(=O)N2C(C(=O)[O-])=C(SCc3cc[n+](C)cc3)C[C@H]12	MIC	16 µg/mL
C[C@@H](O)[C@H]1C(=O)N2C(C(=O)[O-])=C(SCc3ccc[n+](C)c3)C[C@H]12	MIC	2 µg/mL

Now take the following molecule into account.
Q: // returns reported MIC for input `C[C@@H](O)[C@H]1C(=O)N2C(C(=O)[O-])=C(SCc3cccc[n+]3C)C[C@H]12`
Result: 2 µg/mL
